System: E. coli 50739822
Test method notes: MIC, multi-resistant clinical isolate
Assay type: cell-based, Escherichia coli
Recorded conditions: RBC EC50 / MIC
Reported endpoint: selectivity index (EC50/MIC)

Example results:
>>> observed_value("NCCCCN1C(=O)N(CCCCN)C(=O)C(Cc2cc(Br)cc(Br)c2)(Cc2cc(Br)cc(Br)c2)C1=O")
"(10)"
>>> observed_value("N=C(N)NCCCCN1C(=O)N(CCCCNC(=N)N)C(=O)C(Cc2ccc(F)c3ccccc23)(Cc2ccc(F)c3ccccc23)C1=O")
"(11)"
>>> observed_value("N=C(N)NCCCCN1C(=O)N(CCCCNC(=N)N)C(=O)C(Cc2cc(Br)cc(Br)c2)(Cc2cc(Br)cc(Br)c2)C1=O")
"(14)"
>>> observed_value("NCCCCN1C(=O)N(CCCCN)C(=O)C(Cc2ccc(F)c3ccccc23)(Cc2ccc(F)c3ccccc23)C1=O")
"(10)"
>>> observed_value("NCCCCN1C(=O)N(CCCCN)C(=O)C(Cc2ccc3ccccc3c2)(Cc2ccc3ccccc3c2)C1=O")
"(15)"

// switching to the query molecule
## Task Need selectivity index (EC50/MIC) of `N=C(N)NCCCCN1C(=O)N(CCCCNC(=N)N)C(=O)C(Cc2ccc3ccccc3c2)(Cc2ccc3ccccc3c2)C1=O` , thanks.
## Result (17)

---

System: A. baumanii K63-58
Test method notes: MIC, multi-resistant clinical isolate
Assay type: cell-based, Acinetobacter baumannii
Recorded conditions: RBC EC50 / MIC, A. baumanii K63-58, resistant to colistin
Reported endpoint: selectivity index (EC50/MIC)

>>> observed_value("CC(C)(C)c1cc(CC2(Cc3cc(C(C)(C)C)cc(C(C)(C)C)c3)C(=O)N(CCCCN)C(=O)N(CCCCN)C2=O)cc(C(C)(C)C)c1")
"(<1)"
>>> observed_value("CC(C)(C)c1ccc(CC2(Cc3ccc(C(C)(C)C)cc3)C(=O)N(CCCCNC(=N)N)C(=O)N(CCCCNC(=N)N)C2=O)cc1")
"(19)"
>>> observed_value("N=C(N)NCCCCN1C(=O)N(CCCCNC(=N)N)C(=O)C(Cc2ccc3ccccc3c2)(Cc2ccc3ccccc3c2)C1=O")
"(4)"
>>> observed_value("N=C(N)NCCCCN1C(=O)N(CCCCNC(=N)N)C(=O)C(Cc2cc(Br)cc(Br)c2)(Cc2cc(Br)cc(Br)c2)C1=O")
"(14)"
>>> observed_value("NCCCCN1C(=O)N(CCCCN)C(=O)C(Cc2cc(Br)cc(Br)c2)(Cc2cc(Br)cc(Br)c2)C1=O")
"(5)"
>>> observed_value("CC(C)(C)c1ccc(CC2(Cc3ccc(C(C)(C)C)cc3)C(=O)N(CCCCN)C(=O)N(CCCCN)C2=O)cc1")
"(9)"
>>> observed_value("NCCCCN1C(=O)N(CCCCN)C(=O)C(Cc2ccc(F)c3ccccc23)(Cc2ccc(F)c3ccccc23)C1=O")
"(10)"
>>> observed_value("NCCCCN1C(=O)N(CCCCN)C(=O)C(Cc2ccc3ccccc3c2)(Cc2ccc3ccccc3c2)C1=O")
"(15)"

## Task Need selectivity index (EC50/MIC) of `NCCCCN1C(=O)N(CCCCN)C(=O)C(Cc2cc(C(F)(F)F)cc(C(F)(F)F)c2)(Cc2cc(C(F)(F)F)cc(C(F)(F)F)c2)C1=O` , thanks.
## Result (6)

## Task Need selectivity index (EC50/MIC) of `CC(C)(C)c1cc(CC2(Cc3cc(C(C)(C)C)cc(C(C)(C)C)c3)C(=O)N(CCCCNC(=N)N)C(=O)N(CCCCNC(=N)N)C2=O)cc(C(C)(C)C)c1` , thanks.
## Result (<1)

## Task Need selectivity index (EC50/MIC) of `N=C(N)NCCCCN1C(=O)N(CCCCNC(=N)N)C(=O)C(Cc2ccc(F)c3ccccc23)(Cc2ccc(F)c3ccccc23)C1=O` , thanks.
## Result (11)

---

Test system: E. faecium 50758899
Test method notes: MIC, multi-resistant clinical isolate
Type: cell-based, Enterococcus faecium
Recorded conditions: RBC EC50 / MIC
Reported endpoint: selectivity index (EC50/MIC)

Example results:
>>> observed_value("CC(C)(C)c1cc(CC2(Cc3cc(C(C)(C)C)cc(C(C)(C)C)c3)C(=O)N(CCCCN)C(=O)N(CCCCN)C2=O)cc(C(C)(C)C)c1")
"(<2)"
>>> observed_value("N=C(N)NCCCCN1C(=O)N(CCCCNC(=N)N)C(=O)C(Cc2ccc3ccccc3c2)(Cc2ccc3ccccc3c2)C1=O")
"(8)"
>>> observed_value("NCCCCN1C(=O)N(CCCCN)C(=O)C(Cc2ccc(F)c3ccccc23)(Cc2ccc(F)c3ccccc23)C1=O")
"(20)"
>>> observed_value("NCCCCN1C(=O)N(CCCCN)C(=O)C(Cc2cc(C(F)(F)F)cc(C(F)(F)F)c2)(Cc2cc(C(F)(F)F)cc(C(F)(F)F)c2)C1=O")
"(11)"
>>> observed_value("N=C(N)NCCCCN1C(=O)N(CCCCNC(=N)N)C(=O)C(Cc2cc(Br)cc(Br)c2)(Cc2cc(Br)cc(Br)c2)C1=O")
"(14)"
>>> observed_value("NCCCCN1C(=O)N(CCCCN)C(=O)C(Cc2ccc3ccccc3c2)(Cc2ccc3ccccc3c2)C1=O")
"(15)"
>>> observed_value("NCCCCN1C(=O)N(CCCCN)C(=O)C(Cc2cc(Br)cc(Br)c2)(Cc2cc(Br)cc(Br)c2)C1=O")
"(21)"
>>> observed_value("CC(C)(C)c1ccc(CC2(Cc3ccc(C(C)(C)C)cc3)C(=O)N(CCCCNC(=N)N)C(=O)N(CCCCNC(=N)N)C2=O)cc1")
"(39)"
>>> observed_value("N=C(N)NCCCCN1C(=O)N(CCCCNC(=N)N)C(=O)C(Cc2ccc(F)c3ccccc23)(Cc2ccc(F)c3ccccc23)C1=O")
"(22)"
>>> observed_value("CC(C)(C)c1ccc(CC2(Cc3ccc(C(C)(C)C)cc3)C(=O)N(CCCCN)C(=O)N(CCCCN)C2=O)cc1")
"(18)"

// switching to the query compound
## Task Need selectivity index (EC50/MIC) of `CC(C)(C)c1cc(CC2(Cc3cc(C(C)(C)C)cc(C(C)(C)C)c3)C(=O)N(CCCCNC(=N)N)C(=O)N(CCCCNC(=N)N)C2=O)cc(C(C)(C)C)c1` , thanks.
## Result (<2)

---

Catalogue of molecules with associated MIC
System: P. aeruginosa K34-73
Test method notes: MIC, multi-resistant clinical isolate
Type: cell-based, Pseudomonas aeruginosa
Recorded conditions: Pseudomonas aeruginosa, K3473; P. aeruginosa K34-73; read-out: Antimicrobial activity (MIC)

Example results:
>>> observed_value("N=C(N)NCCCCN1C(=O)N(CCCCNC(=N)N)C(=O)C(Cc2ccc(F)c3ccccc23)(Cc2ccc(F)c3ccccc23)C1=O")
"8 µg/mL"
>>> observed_value("CC(C)(C)c1ccc(CC2(Cc3ccc(C(C)(C)C)cc3)C(=O)N(CCCCNC(=N)N)C(=O)N(CCCCNC(=N)N)C2=O)cc1")
"8 µg/mL"
>>> observed_value("N=C(N)NCCCCN1C(=O)N(CCCCNC(=N)N)C(=O)C(Cc2cc(Br)cc(Br)c2)(Cc2cc(Br)cc(Br)c2)C1=O")
"8 µg/mL"
>>> observed_value("CC(C)(C)c1cc(CC2(Cc3cc(C(C)(C)C)cc(C(C)(C)C)c3)C(=O)N(CCCCNC(=N)N)C(=O)N(CCCCNC(=N)N)C2=O)cc(C(C)(C)C)c1")
"8 µg/mL"

// switching to the query molecule
## Task Need MIC of `N=C(N)NCCCCN1C(=O)N(CCCCNC(=N)N)C(=O)C(Cc2ccc3ccccc3c2)(Cc2ccc3ccccc3c2)C1=O` , thanks.
## Result 32 µg/mL

---

System: S. aureus N315
Test method notes: MIC, multi-resistant clinical isolate
Assay type: cell-based, Staphylococcus aureus
Recorded conditions: RBC EC50 / MIC, S. aureus N315
Reported endpoint: selectivity index (EC50/MIC)

>>> observed_value("N=C(N)NCCCCN1C(=O)N(CCCCNC(=N)N)C(=O)C(Cc2ccc(F)c3ccccc23)(Cc2ccc(F)c3ccccc23)C1=O")
"(44)"
>>> observed_value("N=C(N)NCCCCN1C(=O)N(CCCCNC(=N)N)C(=O)C(Cc2ccc3ccccc3c2)(Cc2ccc3ccccc3c2)C1=O")
"(17)"
>>> observed_value("CC(C)(C)c1cc(CC2(Cc3cc(C(C)(C)C)cc(C(C)(C)C)c3)C(=O)N(CCCCNC(=N)N)C(=O)N(CCCCNC(=N)N)C2=O)cc(C(C)(C)C)c1")
"(<1)"

---

System: P. aeruginosa 50692172
Test method notes: MIC, multi-resistant clinical isolate
Type: cell-based, Pseudomonas aeruginosa
Recorded conditions: Pseudomonas aeruginosa, read-out: Antimicrobial activity (MIC)
Catalogue of compounds with associated MIC

>>> observed_value("CC(C)(C)c1ccc(CC2(Cc3ccc(C(C)(C)C)cc3)C(=O)N(CCCCNC(=N)N)C(=O)N(CCCCNC(=N)N)C2=O)cc1 [Compound 8(i)]")
"16 µg/mL"
>>> observed_value("NCCCCN1C(=O)N(CCCCN)C(=O)C(Cc2cc(C(F)(F)F)cc(C(F)(F)F)c2)(Cc2cc(C(F)(F)F)cc(C(F)(F)F)c2)C1=O [7(vi)]")
"32 µg/mL"
>>> observed_value("NCCCCN1C(=O)N(CCCCN)C(=O)C(Cc2ccc3ccccc3c2)(Cc2ccc3ccccc3c2)C1=O [7(iv)]")
"32 µg/mL"

## Task Need MIC of N=C(N)NCCCCN1C(=O)N(CCCCNC(=N)N)C(=O)C(Cc2cc(Br)cc(Br)c2)(Cc2cc(Br)cc(Br)c2)C1=O [8(ii)] , thanks.
## Result 8 µg/mL
